Experiment: small-molecule microarray binders of probe aXIP, primary screen, biochemical, NeuroSMM set, 635/667 nm fluorescence (AID 1119);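 further: probe is the protein aXip251-270 applied at 1 µg/mL to compound-printed slides; binding of probe to printed compounds measured as 667 nm fluorescence plus signal to noise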
Conditions: higher = more signal, called active from +8 up or from −8 down
Each entry below carries its reported composite Z-score.
Field format: numeric only.

Guide cases for composite Z-score, answers given:
| compound | recordedEndpoint | readoutNumber |
| --- | --- | --- |
| NC(=O)N1C(=O)C2C(C1=O)C1C=C(c3ccc(CO)cc3)C2C(c2cccs2)N1Cc1cccc(OC(F)(F)F)c1 (configuration not stated) | composite Z-score | 0.29 |
| COc1cc(Br)cc(C(O)C2C=CC3C(=O)N(C)C(=O)C3N2N2CCCCC2)c1OC (configuration not stated) | composite Z-score | 1.94 |
| C=CCNC(=O)[C@@H]1[C@H]2C(=O)O[C@H](c3ccccc3)[C@H](c3ccccc3)N2[C@H](c2ccccc2OCCO)[C@@]12C(=O)N(C(=O)OCCOC)c1ccccc12 | composite Z-score | 0.318 |
| C=C(C(=O)CC[C@@H](OC(=O)c1cccnc1)c1ccccc1OCCO)C(C)C | composite Z-score | 0.59 |
| O=C1N[C@@H](Cc2ccccc2)C(=O)N2[C@@H]1C[C@@H](C(=O)O)[C@H]2c1cccc(OCCO)c1 | composite Z-score | 0.108 |
| C=CCOC(=O)[C@H]1[C@@H]2C(=O)O[C@@H](c3ccccc3)[C@@H](c3ccccc3)N2[C@@H](c2ccc(OCCOC(=O)[C@H]3C[C@H]4C(=O)N[C@@H](CCCCN(C)C)C(=O)N4[C@H]3c3ccc(O)cc3)cc2)[C@]12C(=O)Nc1ccc(I)cc12 | composite Z-score | 0.432 |

Consider the record given below.
Looking up CC(C)NC(=O)[C@@]1(C)c2ccccc2C(=O)N(Cc2cc(C(F)(F)F)cc(C(F)(F)F)c2)[C@H]1c1ccc(CO)cc1 , I see its composite Z-score listed as -0.0197

---

Each entry below carries its reported composite z-score.
Test system: Chordin-like protein 2 (CHRDL2)
Experiment: CHRDL2 small-molecule binders, primary screen, biochemical, small-molecule microarray, 635 nm fluorescence (AID 1126);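 further: printed compound slides probed with Chrdl2 protein at 4 µg/mL for 1 h at 4 C; score merges 667 nm emission intensity with signal to noise over three replicate slides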
Details: small-molecule microarray binding, fluorescence 635 nm; higher = more signal
Field format: numeric only.

Guide cases for composite z-score, answers given:
| testSmiles | composite z-score |
| --- | --- |
| Cc1ccc(S[C@]2(C(=O)NC3CC3)CC(=O)N(Cc3ccccc3)[C@@H]2c2ccc(CO)cc2I)cc1 | -0.682 |
| C=CC[C@@]1(C(=O)NCCN2CCOCC2)N=C(c2ccc(OCCCO)cc2)O[C@@H]1c1ccccc1N=[N+]=[N-] | 0.703 |

Considering O=C(NC1CC1)[C@@H]1c2ccccc2C(=O)N(Cc2ccccc2Cl)[C@H]1c1ccc(CO)cc1 , its composite z-score with Chordin-like protein 2 (CHRDL2) was recorded as 0.516

Considering C=C(CCCC)/C(=C/C[C@H](OC(=O)c1ccncc1)c1ccccc1OCCO)c1cnc2ccccc2c1 , its composite z-score with Chordin-like protein 2 (CHRDL2) was recorded as 0.66

---

Target: Torsin-1A-interacting protein 2 (Homo sapiens)
Assay: LULL1 binders on small-molecule microarray, primary screen, cell lysate, human LULL1 lysate, 635/667 nm fluorescence (AID 1092);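 further: probe is lysate of COS7 cells overexpressing human LULL1; score merges per-feature 667 nm fluorescence with signal-to-noise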
Conditions: hLULL1 lysate binding, 635 nm fluorescence, higher = more signal
Tag: True if measured composite z-score is not below 2, False if it is.

Study these solved cases before continuing.
| testSmiles | qualitativeLabel |
| --- | --- |
| C=CCOC(=O)[C@H]1[C@@H]2C(=O)O[C@@H](c3ccccc3)[C@@H](c3ccccc3)N2[C@@H](c2ccc(OCCOC(=O)[C@H]3C[C@H]4C(=O)N[C@@H](CCCCN(C)C)C(=O)N4[C@H]3c3ccc(O)cc3)cc2)[C@]12C(=O)Nc1ccc(I)cc12 | True |
| [N-]=[N+]=Nc1ccccc1[C@@H]1OC(c2ccc(OCCCO)cc2)=N[C@]1(CCS(=O)(=O)c1ccccc1)C(N)=O | True |
| COCCOC(=O)N1C(=O)[C@@]2(c3cc(C#CCC(C(=O)OC)C(=O)OC)ccc31)[C@H](c1ccccc1OCCO)N1[C@H](c3ccccc3)[C@H](c3ccccc3)OC(=O)[C@H]1[C@@H]2C(=O)NC[C@H](O)c1ccccc1 | True |
| C=C(COC)/C(=C/C[C@H](OC(C)=O)c1ccc(CO)o1)c1cc(C(=O)OC)ccc1OC | False |
| COCCOC(=O)N1C(=O)[C@@]2(c3cc(C#CCCO)ccc31)[C@H](C(=O)N1CCCCCCC1)[C@H]1C(=O)O[C@H](c3ccccc3)[C@H](c3ccccc3)N1[C@@H]2c1ccc(OCCO)cc1 | True |

Would you kindly look at the next entry?
Assess whether reported composite z-score for COC(=O)[C@@]1(Cc2ccc(F)cc2)[C@H]2c3cc(C(=O)N(C)C)n(Cc4ccc(Cl)c(C(F)(F)F)c4)c3C[C@H]2CN1C(=O)c1ccccc1 sits at 2 or higher. True
